assay: Pharmacokinetics in dogs (plasma concentration by HPLC); assay type: in vivo, dog (beagle); settings: dog, plasma, po, 2 mg/kg/day, Dog 1, day 5; 2 mg/kg/day PO
quantity: AUC(0-t) (ng·h/mL)
State just the number; it will be interpreted in ng·h/mL.

Sure, the documented AUC(0-t) for c1cc(Nc2nccc(-c3cccs3)n2)cc(OCCn2ccnc2)c1 is 996

Sure, the documented AUC(0-t) for Cc1cc(Nc2nccc(-c3ccncc3)n2)ccc1N.Cl.Cl [Compound 2, reference compound] is 293

###

experiment: Pharmacokinetics in dogs (plasma concentration by HPLC); type: in vivo, dog (beagle); conditions: dog, plasma, po, 2 mg/kg/day, Dog 1, day 3, 0.5 h; 2 mg/kg/day PO
quantity: concentration at 0.5 h

Sure, the documented concentration at 0.5 h for Cc1cc(Nc2nccc(-c3ccncc3)n2)ccc1N.Cl.Cl [Compound 2, reference compound] is 375 ng/mL

Sure, the documented concentration at 0.5 h for c1cc(Nc2nccc(-c3cccs3)n2)cc(OCCn2ccnc2)c1 is < 30 ng/mL
